method.summary: Toxicity liver stage against HepG2, at 10uM
Format: cell-based
Set-up: test concentration 10 uM, cell line HepG2-A16-CD81EGFP
experimental.conditions: human, HepG2-A16-CD81EGFP cells; read-out: INHIBITION
observable: cytotoxicity at 10 µM (%)
Give a bare numeral; the unit % is implied.

molecule: Cc1cc(C)n(CC(C)CNC(=O)NCc2c(C)cc(C)[nH]c2=O)n1 (stereo not drawn)
cytotoxicity at 10 µM [%]: -7.86
--
molecule: CC(C)c1nc(S(=O)(=O)N(C)c2ccc(F)cc2)c[nH]1
cytotoxicity at 10 µM [%]: -0.131
--
molecule: CS(=O)(=O)NCc1ncn2c1CN(Cc1cccs1)CCC2
cytotoxicity at 10 µM [%]: -66.8

Incoming: Name the recorded cytotoxicity at 10 µM of the item COc1cc2c(cc1CNC(=O)Cc1cc(C)on1)OC(C)C2 (stereo not drawn) in your answer.
Outgoing: 5.38

Incoming: Name the recorded cytotoxicity at 10 µM of the item Cc1cnccc1-c1cnn(CCNC(=O)c2ccccn2)c1C1CC1 in your answer.
Outgoing: 56.3

Incoming: Name the recorded cytotoxicity at 10 µM of the item COc1cccc(CN2CCC(O)(c3ccc(C)cn3)CC2)c1OC in your answer.
Outgoing: -107

Incoming: Name the recorded cytotoxicity at 10 µM of the item CS(=O)(=O)N1CC[C@H]2[C@H](C[C@@H](Cn3cncn3)N2CC2CC2)C1 in your answer.
Outgoing: -6.25

Incoming: Name the recorded cytotoxicity at 10 µM of the item COc1ccc(C(=O)N2CCC(Nc3cccnn3)CC2)c(F)c1 in your answer.
Outgoing: -8.96

Incoming: Name the recorded cytotoxicity at 10 µM of the item CS(=O)(=O)NCC1CCCN(C(=O)c2ccco2)C1 (stereo not drawn) in your answer.
Outgoing: -19.3

Incoming: Name the recorded cytotoxicity at 10 µM of the item CC(C)(C)C(O)CCNC(=O)c1ccc(F)cc1Cl (stereo not drawn) in your answer.
Outgoing: 0.0701

Incoming: Name the recorded cytotoxicity at 10 µM of the item Cc1ccc(C2(O)CCN(C(=O)CCn3ccc(=O)[nH]c3=O)CC2)nc1 in your answer.
Outgoing: 1.99
